# Test system: K562
# ASSAY_SUMMARY: Cytotoxicity against human K562 cells after 48 hrs by SRB assay
# Format: functional
# CONDITION_SET: K562, 48 h
READOUT: GI50 (µM)
One number for each entry, in µM.

Sample answers from the record:
Input line: Please respond with reported GI50 (system K562) for "C/C=C1\NC(=O)[C@H](Cc2ccccc2)NC(=O)[C@@H](C(C)C)NC(=O)[C@@H]([C@H](C)CC)NC(=O)[C@H](NC(=O)[C@H](NC(=O)[C@H](CCCN)NC(=O)[C@H]2CCCN2C(=O)[C@H](NC(=O)[C@@H](NC(=O)[C@@H](NC(=O)[C@H](NC(=O)CCCCCC)C(C)C)[C@@H](C)O)C(C)C)C(C)C)[C@H](C)CC)[C@H](C)OC(=O)[C@H](C(C)C)NC1=O" .
Output line: 2.74

Input line: Provide K562 GI50 reading for "C/C=C1\NC(=O)[C@H](Cc2ccccc2)NC(=O)[C@@H](C(C)C)NC(=O)[C@@H]([C@H](C)CC)NC(=O)[C@H](NC(=O)[C@H](NC(=O)[C@H](CCCN)NC(=O)[C@H]2CCCN2C(=O)[C@H](NC(=O)[C@H](NC(=O)[C@@H](NC(=O)[C@H](NC(=O)CCCC(C)C)C(C)C)[C@@H](C)O)C(C)C)C(C)C)[C@H](C)CC)[C@H](C)OC(=O)[C@H](C(C)C)NC1=O" .
Output line: 4.29

Input line: Using K562 as the test system, report measured GI50 of "C/C=C1\NC(=O)[C@H](Cc2ccc(O)cc2)NC(=O)[C@@H](C(C)C)NC(=O)[C@@H]([C@H](C)CC)NC(=O)[C@H](NC(=O)[C@H](NC(=O)[C@H](CCCN)NC(=O)[C@H]2CCCN2C(=O)[C@H](NC(=O)[C@@H](NC(=O)[C@@H](NC(=O)[C@H](NC(=O)CC[C@@H](C)CC)C(C)C)[C@@H](C)O)C(C)C)C(C)C)[C@H](C)CC)[C@H](C)OC(=O)[C@H](C(C)C)NC1=O" .
Output line: 4.92

Input line: Lab note: record GI50 of "C/C=C1\NC(=O)[C@H](Cc2ccccc2)NC(=O)[C@@H](C(C)C)NC(=O)[C@@H]([C@H](C)CC)NC(=O)[C@H](NC(=O)[C@H](NC(=O)[C@H](CCCNC(=O)C[C@](OC)(c2ccccc2)C(F)(F)F)NC(=O)[C@H]2CCCN2C(=O)[C@H](NC(=O)[C@@H](NC(=O)[C@@H](NC(=O)[C@H](NC(=O)CCCC(C)C)C(C)C)[C@@H](C)O)C(C)C)C(C)C)[C@H](C)CC)[C@H](C)OC(=O)[C@H](C(C)C)NC1=O" tested on K562.
Output line: 1.11

***
Input line: Report GI50 under test system K562 for "C/C=C1\NC(=O)[C@H](Cc2cccs2)NC(=O)[C@@H](C(C)C)NC(=O)[C@@H]([C@H](C)CC)NC(=O)[C@H](NC(=O)[C@H](NC(=O)[C@H](CCCN)NC(=O)[C@H]2CCCN2C(=O)[C@H](NC(=O)[C@@H](NC(=O)[C@@H](NC(=O)[C@H](NC(=O)CC[C@@H](C)CC)C(C)C)[C@@H](C)O)C(C)C)C(C)C)[C@H](C)CC)[C@H](C)OC(=O)[C@H](C(C)C)NC1=O" .
Output line: 4.92
